target: furin, P09958; assay: furin cleavage Z-score vs untreated control; higher = more cleavage, active = 3.5 or more, inactive = 1 or less, 8 variable residues between constant flanks; settings: 15 min;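 also: purified furin at 1:10 enzyme:substrate in 50 mM HEPES pH 7.5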
Sequence (P09958 whole entry): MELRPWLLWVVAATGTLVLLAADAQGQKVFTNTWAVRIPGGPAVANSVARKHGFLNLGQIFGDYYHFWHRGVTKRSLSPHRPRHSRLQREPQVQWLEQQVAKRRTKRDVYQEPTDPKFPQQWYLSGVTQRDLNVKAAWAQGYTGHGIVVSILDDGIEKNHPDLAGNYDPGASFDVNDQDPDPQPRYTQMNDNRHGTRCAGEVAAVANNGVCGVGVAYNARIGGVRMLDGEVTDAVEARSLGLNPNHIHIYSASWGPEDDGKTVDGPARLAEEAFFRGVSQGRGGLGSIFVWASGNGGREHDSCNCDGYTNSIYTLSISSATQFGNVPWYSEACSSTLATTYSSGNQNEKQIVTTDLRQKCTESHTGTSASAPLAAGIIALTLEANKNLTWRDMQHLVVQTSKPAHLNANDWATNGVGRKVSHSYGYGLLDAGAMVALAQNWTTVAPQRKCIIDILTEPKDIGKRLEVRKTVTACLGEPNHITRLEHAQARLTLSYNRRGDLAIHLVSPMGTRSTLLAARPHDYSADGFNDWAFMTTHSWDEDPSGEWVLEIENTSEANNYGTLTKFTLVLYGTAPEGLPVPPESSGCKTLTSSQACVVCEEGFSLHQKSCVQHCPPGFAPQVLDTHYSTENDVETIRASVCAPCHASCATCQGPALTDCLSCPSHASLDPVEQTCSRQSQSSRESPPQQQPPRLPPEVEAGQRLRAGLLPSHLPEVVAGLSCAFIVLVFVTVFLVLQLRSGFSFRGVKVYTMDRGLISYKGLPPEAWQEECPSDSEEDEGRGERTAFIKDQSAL
This is one part of the list. The true hit rate is not given.
Lab note: compare furin cleavage Z-score against 1. Equal or greater, write 1. Smaller, write -1.

State whether the measured furin cleavage Z-score reaches 1, counting equality as reaching it, for CALHSRPQRLAGNASASA [FS-939] 1

Hello, I need to know if CADAEVVTSTAGNASASA [HC2283] has measured furin cleavage Z-score not below 1. Thanks! -1

Please check the record CAEISVPAEIAGNASASA [HC1294] and state if its furin cleavage Z-score is at or above 1. -1

Evaluate CAGPQRQKKLAGNASASA [FS-1202] : furin cleavage Z-score at minimum 1? -1

Has CALLCPAGHAAGNASASA [HC745] a recorded furin cleavage Z-score greater than or equal to 1? -1

Hi, just wondering whether CATTPCSGSPAGNASASA [HC1939] shows furin cleavage Z-score of 1 or higher. -1

I'd appreciate it if you could say whether CARSARSPPGAGNASASA [FS-3074] has furin cleavage Z-score at least equal to 1. -1

API: above_or_equal(metric=furin cleavage Z-score, cutoff=1) for item CARSERSVILAGNASASA [FS-2237] -1

Evaluate CAVVCCPMSYAGNASASA [HC120] : furin cleavage Z-score at minimum 1? 1

Exam item: decide whether the reported furin cleavage Z-score for CANGTMRIVGAGNASASA [HC1181] is at least 1. 1

Identify whether the reported furin cleavage Z-score of the following sequence is 1 or greater: CADAHFLSQTAGNASASA [HC945] 1

Test whether the sequence CANTNGSWHLAGNASASA [HC368] records furin cleavage Z-score of 1 or higher. -1

# check: furin cleavage Z-score of CARSIRSVAIAGNASASA [FS-3081] is greater than or equal to 1 -1

Form field: furin cleavage Z-score at least 1? Entry: CAKPARRKRLAGNASASA [FS-44] 1

Could you tell me if the measured furin cleavage Z-score of CARVQRLRRGAGNASASA [FS-1076] reaches 1 or more? 1

For this sequence, is measured furin cleavage Z-score 1 or higher? CASTPCSAHIAGNASASA [HC2564] -1

Decide: is the reported value of furin cleavage Z-score for CARSKRCSCSAGNASASA [FS-2809] equal to or greater than 1? -1

Item CARHVRISRSAGNASASA [FS-708] with furin cleavage Z-score of 1 or above? 1

Say whether CAHPQRKRRGAGNASASA [FS-538] shows furin cleavage Z-score of 1 or more. 1

Record CAPAGRISRSAGNASASA [FS-835] ; criterion: furin cleavage Z-score no lower than 1. Met? 1

Does furin cleavage Z-score meet or surpass 1 for CAIFKRKKRIAGNASASA [FS-1212] ? 1

Please indicate if the recorded furin cleavage Z-score for CAYGVGSSIAAGNASASA [HC512] meets or exceeds 1. -1

Check this sequence for furin cleavage Z-score at or above 1: CAFSYDTRCFAGNASASA [HC1479] -1

Please indicate if the recorded furin cleavage Z-score for CAGPIRRKRLAGNASASA [FS-1526] meets or exceeds 1. 1

In plain terms: is recorded furin cleavage Z-score at least 1 for CAEVARLRRGAGNASASA [FS-1122] ? -1

Does the sequence CARSKRNIIGAGNASASA [FS-1869] have recorded furin cleavage Z-score that is 1 or more? 1

Please tell me: is the sequence CARSKRSSSHAGNASASA [FS-2184] at or over 1 in terms of furin cleavage Z-score? 1

Could you please find out whether CAVVCCSMTYAGNASASA [HC2078] has furin cleavage Z-score that meets 1 or exceeds it? -1

Is reported furin cleavage Z-score greater than or equal to 1 here: CAKPARVSKDAGNASASA [FS-259] -1

Hi team, for CAAATAFVGAAGNASASA [HC1073] , is the recorded furin cleavage Z-score at or above 1? -1

Numbers sourced from the supplement of paper PMC3545927.
